- TARGET_UNDER_TEST: T1, SpoIIAA-P (phosphorylated SpoIIAA) (B. subtilis) (UniProt P10727)
- T1 sequence (chain, phosphoserine at 58 (32P in the labelled tracer)): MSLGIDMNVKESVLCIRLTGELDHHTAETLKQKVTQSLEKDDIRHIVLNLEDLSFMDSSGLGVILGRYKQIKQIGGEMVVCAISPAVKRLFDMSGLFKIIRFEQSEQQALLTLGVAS
PROPERTY_LABEL: KM for SpoIIAA-P (multiple turnover, 10 mM MgCl2, Michaelis-Menten fit) (µM)
The reply should contain only the number, in µM.

BINDER	UNIT_ANNOTATION	RECORDED_NUMBER
SpoIIE phosphatase domain (SpoIIE^590-827) (domain or fragment) SYRVSTGAAHAAKGGGLVSGDSYSMMELGARKYAAAISDGMGNGARAHFESNETIKLLEKILESGIDEKIAIKTINSILSLRTTDEIYSTLDLSIIDLQDASCKFLKVGSTPSFIKRGDQVMKVQASNLPIGIINEFDVEVVSEQLKAGDLLIMMSDGIFEGPKHVENHDLWMKRKMKGLKTNDPQEIADLLMEEVIRTRSGQIEDDMTVVVVRIDHNTPKWASIPVPAIFQNKQEIS	µM	28.7
SpoIIE^E675S (phosphatase domain, SpoIIE^590-827) (domain or fragment) SYRVSTGAAHAAKGGGLVSGDSYSMMELGARKYAAAISDGMGNGARAHFESNETIKLLEKILESGIDEKIAIKTINSILSLRTTDSIYSTLDLSIIDLQDASCKFLKVGSTPSFIKRGDQVMKVQASNLPIGIINEFDVEVVSEQLKAGDLLIMMSDGIFEGPKHVENHDLWMKRKMKGLKTNDPQEIADLLMEEVIRTRSGQIEDDMTVVVVRIDHNTPKWASIPVPAIFQNKQEIS	µM	18.3

Quick one: KM for SpoIIAA-P (multiple turnover, 10 mM MgCl2, Michaelis-Menten fit) of SpoIIE^P752R (phosphatase domain, SpoIIE^590-827) (domain or fragment) SYRVSTGAAHAAKGGGLVSGDSYSMMELGARKYAAAISDGMGNGARAHFESNETIKLLEKILESGIDEKIAIKTINSILSLRTTDEIYSTLDLSIIDLQDASCKFLKVGSTPSFIKRGDQVMKVQASNLPIGIINEFDVEVVSEQLKAGDLLIMMSDGIFEGRKHVENHDLWMKRKMKGLKTNDPQEIADLLMEEVIRTRSGQIEDDMTVVVVRIDHNTPKWASIPVPAIFQNKQEIS ?
38.6
